As shown below, each of these compounds has a reported NADPH fluorescence slope value.
Target: Voltage-gated potassium channel subunit beta-2 (Rattus norvegicus) (UniProt P62483)
Sequence (P62483 whole entry, looked up): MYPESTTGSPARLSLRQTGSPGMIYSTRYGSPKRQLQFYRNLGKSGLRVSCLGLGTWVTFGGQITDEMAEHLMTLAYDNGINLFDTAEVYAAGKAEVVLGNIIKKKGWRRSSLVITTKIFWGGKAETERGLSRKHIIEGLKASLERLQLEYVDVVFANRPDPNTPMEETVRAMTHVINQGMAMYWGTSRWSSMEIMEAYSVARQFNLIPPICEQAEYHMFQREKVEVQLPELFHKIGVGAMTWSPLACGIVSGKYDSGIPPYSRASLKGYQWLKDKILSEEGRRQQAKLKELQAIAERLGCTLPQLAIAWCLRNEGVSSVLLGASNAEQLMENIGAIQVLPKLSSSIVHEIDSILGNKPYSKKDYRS
Test: enhancers of rat Kvbeta2 NADPH turnover – biochemical, NADPH fluorescence, primary screen (AID 623);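 further: fluorescence intensity change per second fitted from 20 to 320 s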
Settings: Recombinant KvBeta, NADPH fluorescence decrease slope, 10 min; at 10 µM; stronger effect = lower value
Write the number on its own, no unit after it.

Below are worked cases with known answers.
| compound | experimental result |
| --- | --- |
| CCCCC(c1nnnn1C1CCCC1)N1CCN(C2CCCCC2)CC1 (stereo not drawn) | -3.5e-05 |
| Cc1nc(=S)n(-c2ccccc2)[nH]1 | -1.9e-05 |
| Cc1ccnc(NC(=O)CCC(=O)N(CC(=O)NC2CCCCC2)c2cccc(C)c2C)c1 | 3.3e-05 |
| COCCN1CN(S(=O)(=O)c2ccccc2)c2nc3ccccc3nc21 | -0.000125 |
| CC(C)c1nc2sc3c(c2c(=O)o1)CCCC3 | -6.4e-05 |
| Cc1cccc(-c2noc(CCC(=O)Nc3ccccc3)n2)c1 | -2.3e-05 |
| Cc1nnc(C)c2c(C)n(-c3ccc(Br)cc3)c(C)c12 | -4.6e-05 |
| CC(=O)c1cc(-c2ccccc2)n(CC(=O)N2CCN(C3CCCC3)CC2)c1C | -7.1e-05 |

// sample COc1ccc(Cl)cc1NC(=O)COc1cccc(-n2cnnn2)c1 , its NADPH fluorescence slope was -1.9e-05

// sample Cc1cccc(N(CC(N)=O)S(C)(=O)=O)c1C , its NADPH fluorescence slope was -0.000105

// sample CN(C)c1ccc(CNC2CC(C)(C)NC(C)(C)C2)cc1 , its NADPH fluorescence slope was -4.8e-05

// sample C=CCn1c(COc2ccccc2F)nnc1SCC(=O)N1CC(=O)Nc2ccccc21 , its NADPH fluorescence slope was 2.1e-06

// sample CC1=C(C#N)C(c2ccoc2)C(C(=O)OCc2ccccc2)=C(N)S1 (stereo not drawn) , its NADPH fluorescence slope was -0.000129

// sample CCc1ccc(NS(=O)(=O)c2ccc3[nH]cc(C(=O)N4CCCCC4)c(=O)c3c2)cc1 , its NADPH fluorescence slope was -5.7e-05

// sample CC(c1nnc(SCC(=O)Nc2sccc2C#N)n1-c1ccc(Cl)cc1)N(C)C (stereo not drawn) , its NADPH fluorescence slope was -2.7e-05

// sample COc1cccc(Oc2ccc(N)cn2)c1 , its NADPH fluorescence slope was -0.000148

// sample COc1ccc(C(=O)N(Cc2ccco2)C(C(=O)NC2CCCC2)c2ccc(O)cc2)cc1OC (stereo not drawn) , its NADPH fluorescence slope was -4.9e-05

====

Experiment: endothelial E-selectin expression blockers – imaging, HUVEC, immunofluorescence, MLSMR starter and 10KST1 sets, primary screen (AID 487);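 further: 100% = median nuclei count of all wells on the same plate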
Conditions: HUVEC TNFalpha-induced E-selectin immunofluorescence imaging, at 2 µM; measured here: cell number, toxicity
As shown below, each of these molecules has a reported nuclei count value.
Enter your answer as a number in %; do not include the unit.

Below are worked cases with known answers.
| molecule | nuclei count (%) |
| --- | --- |
| CC(=O)Nc1c(Cl)n(C(C)=O)c2ccccc12 | 103 |
| COc1ccccc1NC(=O)N1CCCC1C(=O)NC1CCCCC1 (configuration not stated) | 121 |

Please find the next molecule below.
// sample O=C(c1ccc(Cl)cc1)C1CCN(C(=O)NC2CCCCC2)CC1 , its nuclei count was 104
